- System Name: DLG2_3, Q15700
- Assay Comment: holdup assay
- Parameters: key: below the threshold = too weak to quantify, mostly under pKd 3.1 to 4
- Stated Conditions: plain residues with an end cap or a label only (N-terminal biotin on a linker: ado-ado)
Metric: pKd

Binder	Metric	Result Value
EALLQMESVA [CAVIN3, Q969G5]	pKd	3.84
ETQVTAETVI [TMEM225B, P0DP42]	pKd	3.66
DDPSTAETVL [ABCA7, Q8IZY2]	pKd	3.88
YYKRPVQEWV [MMP24, Q9Y5R2]	pKd	3.7
RKPKPSSSCC [RAB9A, P51151]	pKd	3.53
LPHPHSTTRV [NLGN2, Q8NFZ4]	pKd	4.42

Cited source: paper PMC9482650
